- Test system: HeLa
- protocol: Primary qHTS to identify gynecologic anti-cancer compounds using libraries of approved drugs and bioactive compounds (AID 1345084); note: potency is the fitted concentration of half-maximal effect; nearly all actives have a fitted effect of over 55% in size
- runParameters: Gynecologic cancer cell panel viability, ATPlite luminescence, 48 h; series mostly up to 57.5 µM
Records with an inconclusive call do not appear. Active and inactive are the calls of the source. Calls come from the whole dose curve; as a rule, active = well fitted cell-killing curve with a large enough effect; inconclusive = small, poorly fitted or top-dose-only effect, or effect the other way; inactive = flat fitted curve, though single readings scatter.
Exercise: for every item that follows, state its recorded Potency.

Consider the compound shown here: COc1ccc(C[C@H](N)C(=O)N[C@H]2[C@@H](O)[C@H](n3cnc4c(N(C)C)ncnc43)O[C@@H]2CO)cc1 What is its recorded Potency?
2 µM (active)

# query: Potency of entry CNC(=O)c1ccc(Nc2ncc(C(F)(F)F)c(NCc3nccnc3N(C)S(C)(=O)=O)n2)cc1
10 µM (active)

Which Potency is listed for C#C[C@]1(O)CC[C@H]2[C@@H]3CCC4=C/C(=N/O)CC[C@@H]4[C@H]3CC[C@@]21CC ?
14.1 µM (active)

Quick one: Potency for Cc1nc2c(-c3cnc(N)nc3)nc(N3CCOCC3)nc2n1C(C)C ?
1.58 µM (active)

Which Potency is reported for this compound? CCc1nc(C(N)=O)c(Nc2ccc(N3CCC(N4CCN(C)CC4)CC3)c(OC)c2)nc1NC1CCOCC1
3.55 µM (active)

Sample O=C(O)C[C@H](O)C[C@H](O)/C=C/c1c(C2CC2)nc2ccccc2c1-c1ccc(F)cc1 — what was its Potency?
8.91 µM (active)

---

- protocol: Drug repurposing screens with cells derived from glioblastoma tumor samples (AID 1345199); note: % is set by controls: 0 for no effect and ±100 for the full control effect; nearly all actives have a fitted effect of over 40% in size
- runParameters: GBM patient neurospheres viability, ATP luminescence, 48 h; at 45.9 µM (top of the series); tumour line B
Results filed as inconclusive are left out.
parameter: activity, negative = cell killing (%)
Kindly provide the numeric value in % only, without the unit symbol.

For the molecule CC1=C(/C=C/C(C)=C/C=C/C(C)=C/CO)C(C)(C)CCC1 , what activity, negative = cell killing is on record?
-16.9

Which measured activity, negative = cell killing value corresponds to O=CCCCC=O ?
-2.9

Looking for the measured activity, negative = cell killing of OC[C@H]1O[C@@H](n2cnc3c2NC=NC[C@H]3O)C[C@@H]1O , can you help?
2.62

So what's the measured activity, negative = cell killing for this one? CO[C@H]1C=CO[C@@]2(C)Oc3c(C)c(O)c4c(O)c(c5c(nc6cc(C)ccn65)c4c3C2=O)NC(=O)/C(C)=C\C=C[C@H](C)[C@H](O)[C@@H](C)[C@@H](O)[C@@H](C)[C@H](OC(C)=O)[C@@H]1C
-10.2

May I ask what activity, negative = cell killing has been recorded for CCOC(C)=O ?
-6.99

For C[C@]12CCC(=O)C=C1CC[C@@H]1[C@@H]2[C@@H](O)C[C@@]2(C)[C@H]1CC[C@]2(O)C(=O)COP(=O)(O)O , what is its reported activity, negative = cell killing?
-5.72

What measured activity, negative = cell killing goes with CC1(C)S[C@@H]2[C@H](NC(=O)Cc3ccccc3)C(=O)N2[C@H]1C(=O)O ?
-9.27

So what does the record say about activity, negative = cell killing for COC(F)(F)C(Cl)Cl ?
-7.55

Value lookup for activity, negative = cell killing; key = C#C[C@]1(O)CC[C@H]2[C@@H]3CCC4=C/C(=N/O)CC[C@@H]4[C@H]3CC[C@@]21CC
-7.76

If you can, please state the reported activity, negative = cell killing value of O=C(O)CN(CCN(CC(=O)O)CC(=O)O)CC(=O)O .
-9.39

Which activity, negative = cell killing reading was recorded for the molecule CCCCC(C)(O)C/C=C/[C@H]1[C@H](O)CC(=O)[C@@H]1CCCCCCC(=O)OC (stereo partly specified) ?
-29.2
